# System: three mesothelioma cell lines
# protocol_summary: Proliferation assay, ODN combined with chemotherapeutic agents, Example 9
# measurement_setup: Homo sapiens, 72 h, read-out: mean IC50 for Alimta
property_label: IC50 (nM)

1) Nc1nc2[nH]cc(CCc3ccc(C(=O)N[C@@H](CCC(=O)O)C(=O)O)cc3)c2c(=O)[nH]1 [pemetrexed, reference compound]	22.5
